# System: Salmonella typhimurium
# Test Summary: Bactericidal activity against Salmonella Typhimurium ATCC 13311 after 24 hrs
# Type: functional, Salmonella enterica subsp. enterica serovar Typhimurium
# Experimental Context: Salmonella enterica, ATCC 13311, 24 h
Record form. Attribute: MBC. Fill in for each entry.
Remember to follow the number with its unit.

Consider the worked cases shown below.
CNc1nc(C)c(C(=O)/C=C/c2ccccc2OC)s1 ... 521 µM
CNc1nc(C)c(C(=O)/C=C/c2ccc(OC)cc2)s1 ... 513 µM
CN[C@@H]1[C@H](O[C@H]2[C@H](O[C@H]3[C@H](O)[C@@H](O)[C@H](N=C(N)N)[C@@H](O)[C@@H]3N=C(N)N)O[C@@H](C)[C@]2(O)C=O)O[C@@H](CO)[C@H](O)[C@H]1O [STREPTOMYCIN] ... 4.3 µM

For each of the items listed, what is its MBC?
1. CNc1nc(C)c(C(=O)/C=C/c2ccc(Cl)cc2Cl)s1
2. CNc1nc(C)c(C(=O)/C=C/c2ccccc2)s1

Solution:
["306 µM", "388 µM"]
